Molecular target: human GPR119 (Homo sapiens, UniProt Q8TDV5)
Sequence (Q8TDV5 whole entry): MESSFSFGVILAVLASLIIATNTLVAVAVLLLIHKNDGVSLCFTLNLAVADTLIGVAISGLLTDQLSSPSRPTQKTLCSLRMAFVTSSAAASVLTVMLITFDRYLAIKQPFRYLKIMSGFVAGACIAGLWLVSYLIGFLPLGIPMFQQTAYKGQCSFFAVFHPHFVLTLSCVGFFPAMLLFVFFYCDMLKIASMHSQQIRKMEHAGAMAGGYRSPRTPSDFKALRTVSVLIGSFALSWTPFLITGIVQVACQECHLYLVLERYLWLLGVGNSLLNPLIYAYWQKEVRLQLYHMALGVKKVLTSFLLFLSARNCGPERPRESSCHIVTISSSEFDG
Experiment: GPR119 radioligand binding assay ([3H]Cmpd A, membranes of HEK 293FT cells over-expressing hGPR119)
Details: competition with 3H-Cmpd A; Ki from IC50 by Cheng-Prusoff; one line per run
pKi: −log10 of the molar value.
Output TRUE for pKi not less than 7; output FALSE otherwise.

Determine whether this compound has pKi no lower than 7: CC(C)OC(=O)N1CCC(Oc2ncnc(N3Cc4cnn(C)c4C3)c2C#N)CC1 [Example 3]
FALSE

How about this compound: Cc1c(O[C@H]2[C@@H]3COC[C@H]2CN(C(=O)OC(C)(C)C)C3)ncnc1N1Cc2cnn(C)c2C1 [Example 9]
TRUE

Cc1c(O[C@H]2CCN(C(=O)OC(C)(C)C)C[C@H]2F)ncnc1N1Cc2cnn(C)c2C1 (racemic) [Example 6] , same question.
TRUE

Cc1c(O[C@H]2[C@@H]3COC[C@H]2CN(C(=O)OC2(C)CC2)C3)ncnc1N1Cc2cnn(C)c2C1 [Example 10] ?
TRUE
